assay: amyloid nucleation score (Sup35N fusion, yeast selection) (log enrichment); library NNK2; higher = more nucleation; inactive = no reads after selection;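 further: zero at mode of non-aggregating sequences after 7 days selection at 30°C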
# cutoff 1 applies to amyloid nucleation score; >= gives label 1, < gives label 0

Decide: is the reported value of amyloid nucleation score for `VVTRNRISRAGGLRS` equal to or greater than 1?
label 0

Decide: is the reported value of amyloid nucleation score for `FYSLLCTFPSLLTDLLLVHR` equal to or greater than 1?
label 0

Decide: is the reported value of amyloid nucleation score for `FGSVEVVRRIRSFWLFESPR` equal to or greater than 1?
label 1

Decide: is the reported value of amyloid nucleation score for `SNCSKCVKVYTSPCLWSLCG` equal to or greater than 1?
label 1

Decide: is the reported value of amyloid nucleation score for `SFWLTMMCNVGTMALVLSNL` equal to or greater than 1?
label 0

Decide: is the reported value of amyloid nucleation score for `YLSTGNNMFLNVQDSQGA` equal to or greater than 1?
label 1

Decide: is the reported value of amyloid nucleation score for `DPTGIGWIKEQSLVCCGGVS` equal to or greater than 1?
label 1

Decide: is the reported value of amyloid nucleation score for `VSVGNPFSVNRQVYCPTTEW` equal to or greater than 1?
label 0

Decide: is the reported value of amyloid nucleation score for `DNSFMSLYLVRIHFTYPVAA` equal to or greater than 1?
label 1

Decide: is the reported value of amyloid nucleation score for `VCYMGTRCGWNSRARVFWGS` equal to or greater than 1?
label 1

Decide: is the reported value of amyloid nucleation score for `GIKRMCMVPPVIKSNAYSLN` equal to or greater than 1?
label 1

Decide: is the reported value of amyloid nucleation score for `EGAVLRLALGVGTNLNQLSV` equal to or greater than 1?
label 0

Decide: is the reported value of amyloid nucleation score for `AIDAFFLSV` equal to or greater than 1?
label 0

Decide: is the reported value of amyloid nucleation score for `LFVKTLGFLAVCASQ` equal to or greater than 1?
label 0

Decide: is the reported value of amyloid nucleation score for `MVVDFVVYITVCSFRFKQTF` equal to or greater than 1?
label 1

Decide: is the reported value of amyloid nucleation score for `NLHLGMEFTCELRCYWIRLP` equal to or greater than 1?
label 0

Decide: is the reported value of amyloid nucleation score for `AFWRLAVLFVVCRIIF` equal to or greater than 1?
label 0

Decide: is the reported value of amyloid nucleation score for `AVSFWSIF` equal to or greater than 1?
label 0

Decide: is the reported value of amyloid nucleation score for `SLWVYLVKMVEIFSLKD` equal to or greater than 1?
label 0

Decide: is the reported value of amyloid nucleation score for `MLSDSLLDCRVLLMVFGRET` equal to or greater than 1?
label 1

Decide: is the reported value of amyloid nucleation score for `LHWKWQMNCLWSEGSHCFNN` equal to or greater than 1?
label 0

Decide: is the reported value of amyloid nucleation score for `LMASCHKQRTCRWHPRDRRY` equal to or greater than 1?
label 0

Decide: is the reported value of amyloid nucleation score for `STMREQRRRAWRKDCDVIKV` equal to or greater than 1?
label 1

Decide: is the reported value of amyloid nucleation score for `TFAATIGTCMVEILSMGSPG` equal to or greater than 1?
label 0

Decide: is the reported value of amyloid nucleation score for `TNMPRWECSHGGRECGKGPA` equal to or greater than 1?
label 1

Decide: is the reported value of amyloid nucleation score for `LSCSILRPVWLYISLIVIID` equal to or greater than 1?
label 0

Decide: is the reported value of amyloid nucleation score for `WICFYDYWQGFSHNDCREME` equal to or greater than 1?
label 0

Decide: is the reported value of amyloid nucleation score for `CWGNGGQKRLFVLFSFAY` equal to or greater than 1?
label 0
